Reported growth values for a set of compounds
# Tested on: HS 578T breast
# RUN_DESCRIPTION: NCI-60 one-dose screen, 48 h (100 = growth as untreated, 0 = no growth, -100 = all killed)
# TEST_PARAMETERS: 10 µM unless noted
Compounds without any hit were thinned out: in the full panel of roughly 83,000, 20% have a hit. Calls of active or inactive are those of the source. How the source made its calls: active means growth percent below 10; inactive means the rest.

Record excerpt, results attached:
{"columns": ["COMPOUND", "growth"],
 "data": [
  ["O=C1/C(=C/c2ccc(F)cc2)CN(C(=O)CCN2CCC(=NO)CC2)C/C1=C\\c1ccc(F)cc1", "11.4% (inactive)"],
  ["Clc1cccc(Nc2nc(Nc3cnc4ccccc4c3)c3[nH]cnc3n2)c1", "65.6% (inactive)"],
  ["C=C1CC2(OC1=O)C(=O)N(CCCCCCCN1C(=O)C3(CC(=C)C(=O)O3)c3ccccc31)c1ccccc12 (stereo unspecified)", "62.3% (inactive)"],
  ["COc1cccc(-c2cn3c(ccc4ccccc43)n2)c1", "21.6% (inactive)"],
  ["NC(=S)N/N=C/c1ccc(OCc2ccccc2)cc1", "81.2% (inactive)"]
]}

Proceed to the following item.
Value lookup for growth; key = CCCCCCCCCc1cc(CN2CCCCC2)c(O)c(CN2CCCCC2)c1
72.7% (inactive)
